- TGT: Plasmin (Homo sapiens, UniProt P00747)
- Sequence (P00747 581-810 limits assumed, species assumed): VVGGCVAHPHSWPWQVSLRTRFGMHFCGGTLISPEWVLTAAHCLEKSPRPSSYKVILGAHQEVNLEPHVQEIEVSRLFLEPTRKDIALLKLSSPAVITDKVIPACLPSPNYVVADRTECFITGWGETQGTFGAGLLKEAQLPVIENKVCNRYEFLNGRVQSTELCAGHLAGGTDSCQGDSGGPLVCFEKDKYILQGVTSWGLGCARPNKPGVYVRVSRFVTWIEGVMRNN
- Sequence (P00747 97-580 partner limits assumed, species assumed): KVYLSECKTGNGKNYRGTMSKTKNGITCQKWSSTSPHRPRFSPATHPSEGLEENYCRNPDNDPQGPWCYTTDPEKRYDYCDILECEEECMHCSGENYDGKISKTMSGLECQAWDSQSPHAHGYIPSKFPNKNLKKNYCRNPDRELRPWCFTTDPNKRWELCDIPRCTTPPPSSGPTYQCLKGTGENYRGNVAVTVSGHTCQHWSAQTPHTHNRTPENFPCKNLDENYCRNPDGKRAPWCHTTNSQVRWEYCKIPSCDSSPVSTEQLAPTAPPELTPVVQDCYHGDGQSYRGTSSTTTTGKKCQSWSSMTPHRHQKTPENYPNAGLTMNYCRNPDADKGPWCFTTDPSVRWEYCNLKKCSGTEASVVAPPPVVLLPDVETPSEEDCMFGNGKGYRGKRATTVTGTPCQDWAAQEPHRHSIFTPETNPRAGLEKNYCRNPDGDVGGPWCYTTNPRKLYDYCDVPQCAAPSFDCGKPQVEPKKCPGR
- ASSAY NAME: In vitro inhibition of plasmin (Ki according to Dixon)
- Assay type: biochemical
Where a name gives a salt, the structure may show the parent alone.
PARAMETER MEASURED: Ki (µM)

P = CN(CC(=O)NCc1ccc(NC(=N)N)cc1)C(=O)C(CO)NS(=O)(=O)Cc1ccccc1 (stereo not shown)
Q = C[C@H](NC(=O)C(CO)NS(=O)(=O)Cc1ccccc1)C(=O)NCc1ccc(NC(=N)N)cc1 (stereo partly shown) [WX-532, hydrochloride]
R = N=C(N)Nc1ccc(CNC(=O)[C@H](CCc2ccccc2)NC(=O)C(CO)NS(=O)(=O)Cc2ccccc2)cc1 (stereo partly shown) [WX-550, hydrochloride]
Using the recorded Ki, list the entries above from smallest to largest. Would you mind listing the labels in the order asked for?
R, Q, P
(R: 2.5 µM, Q: 40 µM, P: 130 µM)

###

- TGT: urokinase (uPA) (Homo sapiens, UniProt P00749)
- Construct: purchased Calbiochem-Novabiochem GmbH, Bad Soden, Germany
- ASSAY NAME: In vitro inhibition of urokinase (Ki according to Dixon, chromogenic substrate)
- Format: biochemical
- CONDITION NOTES: list of test substances of Example 17; read-out: Ki human uPA
Structures can show the parent of a compound that is named as a salt.
PARAMETER MEASURED: Ki (nM)

Solved entries:
N=C(N)Nc1ccc(CNC(=O)CNC(=O)C(CO)NS(=O)(=O)Cc2ccc(Cl)cc2)cc1 (stereo not drawn) [WX-C340, hydrochloride] ... 10
N=C(N)Nc1ccc(CNC(=O)[C@H](CCc2ccccc2)NC(=O)C(CO)NS(=O)(=O)Cc2ccccc2)cc1 (stereo partly drawn) [WX-550, hydrochloride] ... 100
N=C(N)Nc1ccc(CNC(=O)CNC(=O)C(CO)NS(=O)(=O)Cc2cccc([N+](=O)[O-])c2)cc1 (stereo not drawn) [WX-C316, hydrochloride] ... 90
C[C@H](NC(=O)C(CO)NS(=O)(=O)Cc1ccccc1)C(=O)NCc1ccc(NC(=N)N)cc1 (stereo partly drawn) [WX-532, hydrochloride] ... 16

A = C[C@@H](C(=O)NCc1ccc(NC(=N)N)cc1)N(C)C(=O)[C@@H](CO)NS(=O)(=O)Cc1ccc(Cl)cc1
B = N=C(N)Nc1ccc(CNC(=O)CNC(=O)[C@@H](CO)NS(=O)(=O)Cc2ccccc2)cc1 [WX-508, hydrochloride]
C = CCCCS(=O)(=O)NC(CO)C(=O)NCC(=O)NCc1ccc(NC(=N)N)cc1 (stereo not drawn) [WX-C300, hydrochloride]
Could you please sort these 3 entries by Ki from high to low? Answer format: the labels, in the requested order.
C, B, A
(C: 270 nM, B: 34 nM, A: 10 nM)

###

- TGT: Thrombin (Homo sapiens, UniProt P00734)
- ASSAY NAME: In vitro inhibition of thrombin (Ki according to Dixon)
- Format: biochemical
- Description: In order to determine the inhibitory activity, 200 μl Tris buffer (0.05 mol/l containing the inhibitor, 0.154 mol/l NaCl, pH 8.0), 25 μl substrate (Pefachrome uPA, Pefachrome PL or Pefabloc TH in H2O; Pentapharm Ltd, Basle, Switzerland) and 50 μl urokinase (Calbiochem-Novabiochem GmbH, Bad Soden, Germany) or another appropriate protease e.g. plasmin, thrombin or FXa are incubated for 10 minutes at 30° C. […]
Where a name gives a salt, the structure may show the parent alone.
PARAMETER MEASURED: Ki

Example results:
N=C(N)Nc1ccc(CNC(=O)CNC(=O)[C@@H](CO)NS(=O)(=O)Cc2ccccc2)cc1 [WX-508, hydrochloride] ... > 350 µM
N=C(N)Nc1ccc(S(=O)(=O)NCCNC(=O)C(CO)NS(=O)(=O)Cc2ccccc2)cc1 (stereo not shown) [WX-568, hydrochloride] ... > 1000 µM
N=C(N)Nc1ccc(CNC(=O)[C@H](CCc2ccccc2)NC(=O)C(CO)NS(=O)(=O)Cc2ccccc2)cc1 (stereo partly shown) [WX-550, hydrochloride] ... > 50 µM

Form: Entry = CN(CC(=O)NCc1ccc(NC(=N)N)cc1)C(=O)C(CO)NS(=O)(=O)Cc1ccccc1 (stereo not shown) | System = Thrombin (Homo sapiens, UniProt P00734) | Ki = ____
> 100 µM
